Tested on: 5-Lipoxygenase
Experiment: 5-Lipoxygenase inhibitory activity, colorimetric method (ferric xylenol orange, linoleic acid)
Assay type: biochemical
Settings: 250 μM
Classification field: enter class 1 for % inhibition of 5-Lox activity values not below 20%, class 0 for values below it.

>>> discrete_label("C[C@H]1[C@H](C)CC[C@]2(C(=O)Nc3ccccc3)CC[C@]3(C)C(=CC[C@@H]4[C@@]5(C)C[C@@H](O)[C@H](O)C(C)(C)[C@@H]5CC[C@]43C)[C@H]12 [Compound 9, N-Phenylcorosolamide]")
"class 1"
>>> discrete_label("CC1CCC23CCC4(C)C(=CC(OC2=O)C2C5(C)CC(O)C(O)C(C)(C)C5CCC24C)C3C1C (stereo not drawn) [Compound 26, 2α,3β-Dihydroxyurs-12-en-11,28-olide]")
"class 0"
>>> discrete_label("CC1CCC2(C(=O)N3CCNCC3)CCC3(C)C(=CCC4C5(C)CC(O)C(O)C(C)(C)C5CCC43C)C2C1C (centres unmarked)")
"class 1"
>>> discrete_label("C[C@H]1[C@H](C)CC[C@]2(C(N)=O)CC[C@]3(C)C(=CC(=O)[C@@H]4[C@@]5(C)C[C@@H](O)[C@H](O)C(C)(C)[C@@H]5CC[C@]43C)[C@H]12 [Compound 20, 11-Ketocorosolamide]")
"class 1"

For the next question, use this compound.
Lookup: Evaluate CC1CCC2(C(=O)O)CCC3(C)C(=CCC4C5(C)CC6OS(=O)(=O)OC6C(C)(C)C5CCC43C)C2C1C (centres unmarked) : % inhibition of 5-Lox activity at minimum 20%?
Found: class 0

====

Assay: in vivo
Conditions: Artemia salina (brine shrimp), pH 8.5; 24 h at 37° C., 10 nauplii per vial
Assay Metric: LC50 at 24 h (µM)
Give just the numeric value; µM need not be written.

>>> measured_result("C[C@H]1[C@H](C)CC[C@]2(C(=O)O)CC[C@]3(C)C(=CC[C@@H]4[C@@]5(C)C[C@@H](O)[C@H](O)C(C)(C)[C@@H]5CC[C@]43C)[C@H]12 [Corosolic acid, 2α-hydroxyursolic acid]")
3

Lookup: Entry COc1cc([C@@H]2c3cc4c(cc3[C@H](O)[C@H]3COC(=O)[C@H]23)OCO4)cc(OC)c1OC [podophyllotoxin, Podophyllotoxin, reference compound] : reported LC50 at 24 h = ?
Found: 7.7

====

System: Albino wistar rats
Assay: Hypoglycemic activity: inhibition of sucrose-induced raise in serum glucose levels (SGL)
Format: in vivo
Design: unit not given here
Settings: oral dose 1 mg/Kg; mean increase in serum glucose levels of treated vs control groups
Assay Metric: Inhibitory rate (serum glucose level inhibitory rate)
Write the value as a bare number.

Use these answered entries as a reference point.
>>> measured_result("CC1CCC23CCC4(C)C(=CC(OC2=O)C2C5(C)CC(O)C(O)C(C)(C)C5CCC24C)C3C1C (stereo not drawn) [Compound 26, 2α,3β-Dihydroxyurs-12-en-11,28-olide]")
6.97
>>> measured_result("CC1CCC2(C(=O)N3CCNCC3)CCC3(C)C(=CCC4C5(C)CC(O)C(O)C(C)(C)C5CCC43C)C2C1C (centres unmarked)")
19.83

Lookup: Entry COc1cc(C(=O)OC(=O)C23CCC(C)C(C)C2C2=CCC4C5(C)CC(O)C(O)C(C)(C)C5CCC4(C)C2(C)CC3)cc(OC)c1OC (centres unmarked) [Compound 25, Corosolyl tri-O-methylgallate] : reported Inhibitory rate (serum glucose level inhibitory rate) = ?
Found: 9.84

Lookup: Entry CC1CCC2(C(=O)O)CCC3(C)C(=CCC4C5(C)CC(OC(=O)c6cccnc6)C(O)C(C)(C)C5CCC43C)C2C1C (centres unmarked) : reported Inhibitory rate (serum glucose level inhibitory rate) = ?
Found: 13.9

Lookup: Entry C[C@H]1[C@H](C)CC[C@]2(C(=O)Nc3ccccc3)CC[C@]3(C)C(=CC[C@@H]4[C@@]5(C)C[C@@H](O)[C@H](O)C(C)(C)[C@@H]5CC[C@]43C)[C@H]12 [Compound 9, N-Phenylcorosolamide] : reported Inhibitory rate (serum glucose level inhibitory rate) = ?
Found: 27.58

====

System: Brine shrimp (Artemia salina) nauplii
Assay: in vivo
Details: 24 h at 37° C., 10 nauplii per vial
# LC50 listing for each entry below
Give just the numeric value; µM need not be written.

>>> measured_result("CC1CCC2(C(=O)O)CCC3(C)C(=CCC4C5(C)CC(OC(=O)CN)C(O)C(C)(C)C5CCC43C)C2C1C.Cl (centres unmarked) [Compound 4, 2-O-Glycylcorosolic acid hydrochloride]")
3.9
>>> measured_result("COC(=O)[C@]12CC[C@@H](C)[C@H](C)[C@H]1C1=CC[C@@H]3[C@@]4(C)C[C@@H](O)[C@H](O)C(C)(C)[C@@H]4CC[C@@]3(C)[C@]1(C)CC2 [Compound 13, Methyl corosolate]")
10.2

With those in mind, consider the next compound.
Lookup: Could you share what LC50 was measured for CC(N)C(=O)OC1CC2(C)C(CCC3(C)C2CC=C2C4C(C)C(C)CCC4(C(=O)O)CCC23C)C(C)(C)C1O.Cl (centres unmarked) [Compound 5, 2-O-Alanylcorosolic acid hydrochloride] , tested on Brine shrimp (Artemia salina) nauplii?
Found: 3.4
